All values here come from patent US20040037843A1.

# EXPERIMENTAL_TARGET: HLA-A*0201 (human)
pIC50: −log10 of the molar value.
REPORTED_METRIC: pIC50

LMYSLVHNL [PSM.469] | ≥ 6.70

Which pIC50 value belongs to TLMSAMTNL [PAP.112] ? ≥ 6.70

Which pIC50 value belongs to LLLARAASLSL [PAP.6] ? ≥ 6.70

Which pIC50 value belongs to ALVLAGGFFL [PSM.25] ? < 6.70

Which pIC50 value belongs to KLGSGNDFEV [PSM.514] ? < 6.70

Which pIC50 value belongs to LLHETDSAV [PSM.4] ? < 6.70
